Target: T1, human GITR (human, UniProt Q9Y5U5 26-241)
T1 construct: also called TNFRSF18; Glucocorticoid-induced TNFR-related gene
T1 sequence: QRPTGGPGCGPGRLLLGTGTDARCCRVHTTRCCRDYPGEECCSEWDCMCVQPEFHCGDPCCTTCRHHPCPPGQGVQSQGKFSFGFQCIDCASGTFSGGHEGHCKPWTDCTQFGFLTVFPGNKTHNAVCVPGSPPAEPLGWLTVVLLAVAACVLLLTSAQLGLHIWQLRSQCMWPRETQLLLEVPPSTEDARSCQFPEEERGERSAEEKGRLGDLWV
Assay: flow cytometry on activated human T cells
Metric: EC50 (µg/mL)
Answers are plain numbers, in µg/mL.

Example entries begin here.
INSERT INTO results (binder, assay_value) VALUES
  ('33C9v5 (antibody, human IgG1, kappa, V domains shown, Engineered variant; also called Ab54; SS-16951) VH: QVQVVESGGGVVQPGRSLRLSCAASGFTFSSYGMHWVRQAPGKGLEWVSVIWYEGSNKYYADTVKGRFTISRDNSKNTLYLQMNSLRAEDTAVYYCARGGLLGYYYYYGMDVWGQGTTVTVSS VL: DIQMTQSPSSLSASVGDRVTITCRASQGIRNDLGWYQQKPGKAPKLLIYDASSLQSGVPSRFSGSGSGTEFTLTISSLQPEDFATYYCLQHHSYPWTFGQGTKVEIKR', 0.068),
  ('9H6 (antibody, human IgG1, kappa, V domains shown, Parental fully human antibody; also called Ab19; SS-10945) VH: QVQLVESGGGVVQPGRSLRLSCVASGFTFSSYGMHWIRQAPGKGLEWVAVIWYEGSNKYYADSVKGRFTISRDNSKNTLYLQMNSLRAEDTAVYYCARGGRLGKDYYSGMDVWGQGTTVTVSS VL: DIQMTQSPSSLSASVGDRVTITCRASQGIRNDLGWYQQKPGKAPNRLIYATSSLQSGVPSRFSGSGSGTEFTLTISSLQPEDFATYYCLQHNTYPWTFGQGTKVEIKR', 0.134),
  ('7A10v4 (antibody, human IgG1, kappa, V domains shown, Engineered variant; also called Ab42; SS-16940) VH: QVQLVESGGGVVQPGRSLRLSCAASGFTFSSYGMHWVRQAPGKGLEWMAVIWYVGSNKYYADTVKGRFTISRDNSKNTLYLQMNSLRAEDTAVYYCARGGELGRDYYSGMDVWGQGTTVTVSS VL: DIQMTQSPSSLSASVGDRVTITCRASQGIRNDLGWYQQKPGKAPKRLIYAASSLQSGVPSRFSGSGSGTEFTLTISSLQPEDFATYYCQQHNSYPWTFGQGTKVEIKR', 0.002),
  ('7A10v2 (antibody, human IgG1, kappa, V domains shown, Engineered variant; also called Ab40; SS-16938) VH: QVQLVESGGGVVQPGRSLRLSCAASGFTFSSYGMHWVRQAPGKGLEWMAVIWYVGSNKYYADSVKGRFTISRDNSKNTLYLQMNSLRAEDTAVYYCARGGELGRDYYSGMDVWGQGTTVTVSS VL: DIQMTQSPSSLSASVGDRVTITCRASQGIRNDLGWYQQKPGKAPKLLIYAASSLQSGVPSRFSGSGSGTEFTLTISSLQPEDFATYYCQQHNSYPWTFGQGTKVEIKR', 0.861);

Switching to the query record.
Value of measured EC50 for the entry 33C9v2 (antibody, human IgG1, kappa, V domains shown, Engineered variant; also called Ab51; SS-13808) VH: QVQVVESGGGVVQPGRSLRLSCAASGFTFSSYGMHWVRQAPGKGLEWVSVIWYEGSNKYYAESVKGRFTISRDNSKNTLYLQMNSLRAEDTAVYYCARGGLLGYYYYYGMDVWGQGTTVTVSS VL: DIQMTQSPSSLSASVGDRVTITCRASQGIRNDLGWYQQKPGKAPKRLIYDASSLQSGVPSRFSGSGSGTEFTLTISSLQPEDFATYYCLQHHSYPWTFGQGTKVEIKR : 0.06

Ref: patent US20150064204A1
